Test system: DMS 273 small cell lung
Assay: NCI tumour cell line growth inhibition, 48 h
measured_attribute: TGI

Worked examples, 4 compounds total:
COc1ccc2nc(NC(=O)C(=O)C(C#N)c3ccc(Cl)c(Cl)c3)sc2c1 (stereo not given) = > 100 µM
Cc1ccc(S(=O)(=O)c2c(N)n(CCN(C)C)c3nc4ccccc4nc23)cc1 = > 100 µM
NC(=O)c1cccc([C@@H]2O[C@H](CO)[C@@H](O)[C@H]2O)c1 = 22.9 µM
CC(=O)Oc1ccc(C(c2ccc(OC(C)=O)cc2)c2ccccn2)cc1 = > 100 µM

Q: Suppose we examine the compound CCC(=O)N/N=C(\C=C\c1cccc(O)c1)c1sc(Nc2ccc(C)cc2[N+](=O)[O-])nc1C ; what TGI value has been reported?
Ans: > 100 µM
